All figures here come from ChEMBL document CHEMBL4350952.

Tested on: JeKo-1
Assay Notes: Cytotoxicity against human JeKo1 cells
Format: functional, cell-based
Readout Kind: pIC50
Keep it numeric: pIC50 is minus log10 of the concentration in mol/L.

Kindly state the measured pIC50 obtained for Cn1nc(-c2cnc(N)c(-c3ccc(C(N)=O)c(F)c3)n2)nc1C1(c2ccccc2)CC1 with JeKo-1.
6.92

====

Experimental System: Phosphatidylinositol 4,5-bisphosphate 3-kinase catalytic subunit delta isoform (Homo sapiens, UniProt O00329)
Sequence (O00329 whole entry, canonical isoform): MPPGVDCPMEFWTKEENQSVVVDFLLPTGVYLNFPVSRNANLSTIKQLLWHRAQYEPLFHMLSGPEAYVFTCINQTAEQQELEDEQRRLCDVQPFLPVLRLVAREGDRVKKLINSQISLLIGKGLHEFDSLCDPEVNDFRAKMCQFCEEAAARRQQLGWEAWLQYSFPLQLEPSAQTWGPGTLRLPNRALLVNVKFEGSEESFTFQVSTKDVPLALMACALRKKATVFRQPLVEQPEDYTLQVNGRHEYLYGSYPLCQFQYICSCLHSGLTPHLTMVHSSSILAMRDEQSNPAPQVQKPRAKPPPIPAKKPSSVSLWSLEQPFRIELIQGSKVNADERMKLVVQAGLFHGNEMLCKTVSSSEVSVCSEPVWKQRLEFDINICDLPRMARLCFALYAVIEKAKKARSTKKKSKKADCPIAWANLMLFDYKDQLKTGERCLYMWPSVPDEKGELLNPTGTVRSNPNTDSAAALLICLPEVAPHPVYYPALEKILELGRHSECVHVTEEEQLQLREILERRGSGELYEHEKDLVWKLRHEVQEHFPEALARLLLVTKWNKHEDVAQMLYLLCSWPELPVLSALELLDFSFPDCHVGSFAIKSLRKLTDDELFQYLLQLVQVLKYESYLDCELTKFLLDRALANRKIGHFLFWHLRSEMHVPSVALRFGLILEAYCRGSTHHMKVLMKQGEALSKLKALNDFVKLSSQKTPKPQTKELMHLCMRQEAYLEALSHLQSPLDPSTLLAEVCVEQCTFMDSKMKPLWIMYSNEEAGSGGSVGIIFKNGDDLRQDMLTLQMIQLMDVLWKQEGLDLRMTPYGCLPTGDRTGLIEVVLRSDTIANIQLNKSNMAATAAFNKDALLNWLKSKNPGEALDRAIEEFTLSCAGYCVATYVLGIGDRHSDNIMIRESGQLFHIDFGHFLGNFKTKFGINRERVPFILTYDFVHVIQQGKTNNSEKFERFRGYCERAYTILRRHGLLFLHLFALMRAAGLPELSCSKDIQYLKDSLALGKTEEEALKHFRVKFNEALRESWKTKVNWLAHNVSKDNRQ
Assay Notes: Inhibition of PI3Kdelta (unknown origin)
Readout Kind: pIC50
Keep it numeric: pIC50 is minus log10 of the concentration in mol/L.

INSERT INTO results (molecule, readout_kind, reported_result) VALUES
  ('C[C@H](Nc1ncnc(N)c1C#N)c1cc2ncc(Cl)n2cc1-c1ccccc1', 'pIC50', 9.70),
  ('Cc1nc(NC(=O)CNC(=O)c2ccccc2)sc1-c1cnc(Cl)c(NS(=O)(=O)c2ccccc2)c1', 'pIC50', 9.22),
  ('Cc1ccc2c(c1)C(=O)N(C)c1cnc(Nc3cccc(S(=O)(=O)N4CCC(O)CC4)c3)nc1N2C', 'pIC50', 8.70);

Please look up its pIC50: Cc1nc(N)nc(N[C@@H](C)c2nc3ccn(C)c3cc2N2CCNCC2)c1C#N
9.15
